# reported MIC; entries follow
- System: Staphylococcus aureus
- assay summary: Antimicrobial activity against linezolid-resistant Staphylococcus aureus isolate 004-737X expressing cfr and ermA gene isolated from paraplegic patient by broth microdilution method
- Assay type: functional

O=C(N[C@H](CO)[C@H](O)c1ccc([N+](=O)[O-])cc1)C(Cl)Cl | > 256 µg/mL
CN(C)[C@@H]1C(O)=C(C(N)=O)C(=O)[C@@]2(O)C(O)=C3C(=O)c4c(O)cccc4[C@@](C)(O)[C@H]3C[C@@H]12 | > 8 µg/mL
O=C(O)c1cn(C2CC2)c2cc(N3CCNCC3)c(F)cc2c1=O | > 32 µg/mL
C=C[C@]1(C)C[C@@H](OC(=O)CS[C@@H]2C[C@H]3CC[C@@H](C2)N3C)[C@]2(C)[C@H](C)CC[C@]3(CCC(=O)[C@H]32)[C@@H](C)[C@@H]1O | 32 µg/mL

Incoming: Enter reported MIC observed with Staphylococcus aureus for "C/C(=C\C(=O)OCCCCCCCCC(=O)O)C[C@@H]1OC[C@H](C[C@@H]2O[C@H]2[C@@H](C)[C@H](C)O)[C@@H](O)[C@H]1O"
Outgoing: 0.25 µg/mL

Incoming: Report MIC for "CC(=O)NC[C@H]1CN(c2ccc(N3CCOCC3)c(F)c2)C(=O)O1" tested on Staphylococcus aureus.
Outgoing: 8 µg/mL
